TEST_SYSTEM: hERG (IKr) (Homo sapiens)
Sequence (Q12809 whole entry): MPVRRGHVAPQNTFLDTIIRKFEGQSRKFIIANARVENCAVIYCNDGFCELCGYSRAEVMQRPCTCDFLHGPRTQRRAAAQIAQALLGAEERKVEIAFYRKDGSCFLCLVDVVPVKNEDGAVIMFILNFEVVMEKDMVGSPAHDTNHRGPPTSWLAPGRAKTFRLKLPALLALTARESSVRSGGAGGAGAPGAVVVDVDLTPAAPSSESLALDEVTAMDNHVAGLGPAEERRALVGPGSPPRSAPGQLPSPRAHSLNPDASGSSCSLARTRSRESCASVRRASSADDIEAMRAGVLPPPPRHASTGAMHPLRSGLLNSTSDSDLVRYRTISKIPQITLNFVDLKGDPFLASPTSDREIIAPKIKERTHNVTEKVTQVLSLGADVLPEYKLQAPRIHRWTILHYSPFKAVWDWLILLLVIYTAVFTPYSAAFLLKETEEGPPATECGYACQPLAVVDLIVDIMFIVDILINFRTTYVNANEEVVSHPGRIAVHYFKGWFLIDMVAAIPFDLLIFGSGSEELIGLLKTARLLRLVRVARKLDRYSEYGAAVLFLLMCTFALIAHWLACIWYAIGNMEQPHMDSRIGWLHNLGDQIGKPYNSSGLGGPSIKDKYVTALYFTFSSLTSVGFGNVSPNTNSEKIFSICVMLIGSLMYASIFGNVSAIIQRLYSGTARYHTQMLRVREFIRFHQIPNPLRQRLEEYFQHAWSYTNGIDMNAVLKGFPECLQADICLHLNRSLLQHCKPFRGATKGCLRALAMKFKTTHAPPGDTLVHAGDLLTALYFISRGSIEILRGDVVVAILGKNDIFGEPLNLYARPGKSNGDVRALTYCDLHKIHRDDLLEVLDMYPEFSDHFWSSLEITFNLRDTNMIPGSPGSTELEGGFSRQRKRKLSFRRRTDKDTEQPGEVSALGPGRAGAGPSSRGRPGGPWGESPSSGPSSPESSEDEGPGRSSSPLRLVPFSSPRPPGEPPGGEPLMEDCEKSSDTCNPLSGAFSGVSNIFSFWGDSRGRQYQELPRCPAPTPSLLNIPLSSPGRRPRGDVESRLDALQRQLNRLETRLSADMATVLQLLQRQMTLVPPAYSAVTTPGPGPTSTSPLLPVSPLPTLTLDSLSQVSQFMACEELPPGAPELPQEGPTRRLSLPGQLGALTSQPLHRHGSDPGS
ASSAY_PROTOCOL: Automated patch clamp, IKr Pharm (Roche in-house) protocol, CHO cells
APPLIED_CONDITIONS: human
PROPERTY_MEASURED: inhibition at 3 µM
Report field: quantity (unit follows the number).

Just so you know, measured inhibition at 3 µM for CN1CCN(C2=Nc3cc(Cl)ccc3Nc3ccccc32)CC1 came out at 57%

---

TEST_SYSTEM: CaV1.2 (ICaL) (Homo sapiens)
Sequence (Q13936 whole entry): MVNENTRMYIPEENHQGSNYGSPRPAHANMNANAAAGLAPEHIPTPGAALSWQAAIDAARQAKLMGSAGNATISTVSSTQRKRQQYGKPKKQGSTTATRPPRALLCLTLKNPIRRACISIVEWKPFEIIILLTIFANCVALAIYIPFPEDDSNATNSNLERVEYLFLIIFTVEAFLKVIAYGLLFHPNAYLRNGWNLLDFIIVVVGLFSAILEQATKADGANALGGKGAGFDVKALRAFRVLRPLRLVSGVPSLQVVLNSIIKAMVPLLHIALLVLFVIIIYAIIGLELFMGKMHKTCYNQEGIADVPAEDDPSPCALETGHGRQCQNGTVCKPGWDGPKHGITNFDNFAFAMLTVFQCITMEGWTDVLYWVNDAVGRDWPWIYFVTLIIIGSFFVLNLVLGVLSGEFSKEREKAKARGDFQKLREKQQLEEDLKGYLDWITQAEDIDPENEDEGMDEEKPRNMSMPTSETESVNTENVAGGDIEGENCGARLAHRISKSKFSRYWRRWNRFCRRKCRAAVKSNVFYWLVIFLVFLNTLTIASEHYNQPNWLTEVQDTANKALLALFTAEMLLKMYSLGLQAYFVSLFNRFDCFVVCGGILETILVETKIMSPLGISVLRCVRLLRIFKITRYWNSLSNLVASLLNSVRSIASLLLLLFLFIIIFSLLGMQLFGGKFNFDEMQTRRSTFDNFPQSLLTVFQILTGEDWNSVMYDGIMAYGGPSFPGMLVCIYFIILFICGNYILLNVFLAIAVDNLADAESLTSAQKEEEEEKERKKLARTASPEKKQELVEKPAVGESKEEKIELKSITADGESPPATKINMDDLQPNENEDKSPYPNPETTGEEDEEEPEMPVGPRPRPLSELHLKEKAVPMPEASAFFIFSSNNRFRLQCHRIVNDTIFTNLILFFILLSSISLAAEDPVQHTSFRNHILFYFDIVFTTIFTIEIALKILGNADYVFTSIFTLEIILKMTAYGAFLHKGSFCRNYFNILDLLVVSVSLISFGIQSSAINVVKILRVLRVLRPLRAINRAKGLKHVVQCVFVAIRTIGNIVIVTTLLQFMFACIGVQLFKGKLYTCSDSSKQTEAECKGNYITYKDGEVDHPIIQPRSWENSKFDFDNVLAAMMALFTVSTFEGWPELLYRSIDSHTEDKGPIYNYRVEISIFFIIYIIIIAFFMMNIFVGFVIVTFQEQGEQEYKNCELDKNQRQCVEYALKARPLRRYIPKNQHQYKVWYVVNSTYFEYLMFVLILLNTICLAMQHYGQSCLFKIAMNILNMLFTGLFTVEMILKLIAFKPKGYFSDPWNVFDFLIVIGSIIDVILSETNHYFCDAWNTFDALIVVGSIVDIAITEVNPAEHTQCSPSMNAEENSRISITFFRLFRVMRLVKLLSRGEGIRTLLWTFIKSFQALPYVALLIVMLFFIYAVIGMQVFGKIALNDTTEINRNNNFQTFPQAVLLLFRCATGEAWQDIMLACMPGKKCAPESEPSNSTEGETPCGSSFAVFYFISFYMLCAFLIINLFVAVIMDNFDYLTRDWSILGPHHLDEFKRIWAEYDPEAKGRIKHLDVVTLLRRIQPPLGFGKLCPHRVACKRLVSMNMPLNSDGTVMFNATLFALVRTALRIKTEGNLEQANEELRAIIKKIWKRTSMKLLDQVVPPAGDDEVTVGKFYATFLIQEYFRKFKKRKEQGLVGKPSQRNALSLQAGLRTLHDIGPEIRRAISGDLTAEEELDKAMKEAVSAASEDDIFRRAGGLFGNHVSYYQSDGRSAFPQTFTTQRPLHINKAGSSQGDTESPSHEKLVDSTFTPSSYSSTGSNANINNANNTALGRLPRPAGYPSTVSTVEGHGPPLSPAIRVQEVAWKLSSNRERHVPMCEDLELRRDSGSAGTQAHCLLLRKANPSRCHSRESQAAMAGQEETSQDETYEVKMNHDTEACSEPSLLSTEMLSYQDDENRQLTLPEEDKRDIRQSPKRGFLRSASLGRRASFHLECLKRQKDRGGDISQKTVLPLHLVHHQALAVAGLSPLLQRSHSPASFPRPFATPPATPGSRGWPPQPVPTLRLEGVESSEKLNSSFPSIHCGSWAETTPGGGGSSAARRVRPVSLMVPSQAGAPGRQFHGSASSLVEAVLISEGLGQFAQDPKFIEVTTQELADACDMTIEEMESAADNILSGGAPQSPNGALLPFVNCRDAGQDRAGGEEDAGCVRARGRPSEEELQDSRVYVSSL
Sequence (Q08289 whole entry partner): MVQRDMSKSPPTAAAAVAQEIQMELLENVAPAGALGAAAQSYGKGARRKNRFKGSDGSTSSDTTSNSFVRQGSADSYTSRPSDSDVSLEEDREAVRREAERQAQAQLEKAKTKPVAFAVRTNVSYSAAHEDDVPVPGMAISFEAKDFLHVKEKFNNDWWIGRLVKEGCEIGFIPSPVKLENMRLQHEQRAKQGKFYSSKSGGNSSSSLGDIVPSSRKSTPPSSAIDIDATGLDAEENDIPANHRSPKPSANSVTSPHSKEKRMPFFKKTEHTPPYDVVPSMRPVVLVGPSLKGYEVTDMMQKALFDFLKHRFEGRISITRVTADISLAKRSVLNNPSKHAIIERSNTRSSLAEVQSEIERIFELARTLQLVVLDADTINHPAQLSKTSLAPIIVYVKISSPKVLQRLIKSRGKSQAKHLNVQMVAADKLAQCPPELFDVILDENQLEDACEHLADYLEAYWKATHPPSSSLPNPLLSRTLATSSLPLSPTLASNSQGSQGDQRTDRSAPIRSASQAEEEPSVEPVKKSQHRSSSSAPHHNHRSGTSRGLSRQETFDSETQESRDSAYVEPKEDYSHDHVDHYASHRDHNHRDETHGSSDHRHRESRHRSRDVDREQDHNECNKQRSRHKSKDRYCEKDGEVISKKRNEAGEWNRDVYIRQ
Sequence (P54289 25-956 partner limits assumed): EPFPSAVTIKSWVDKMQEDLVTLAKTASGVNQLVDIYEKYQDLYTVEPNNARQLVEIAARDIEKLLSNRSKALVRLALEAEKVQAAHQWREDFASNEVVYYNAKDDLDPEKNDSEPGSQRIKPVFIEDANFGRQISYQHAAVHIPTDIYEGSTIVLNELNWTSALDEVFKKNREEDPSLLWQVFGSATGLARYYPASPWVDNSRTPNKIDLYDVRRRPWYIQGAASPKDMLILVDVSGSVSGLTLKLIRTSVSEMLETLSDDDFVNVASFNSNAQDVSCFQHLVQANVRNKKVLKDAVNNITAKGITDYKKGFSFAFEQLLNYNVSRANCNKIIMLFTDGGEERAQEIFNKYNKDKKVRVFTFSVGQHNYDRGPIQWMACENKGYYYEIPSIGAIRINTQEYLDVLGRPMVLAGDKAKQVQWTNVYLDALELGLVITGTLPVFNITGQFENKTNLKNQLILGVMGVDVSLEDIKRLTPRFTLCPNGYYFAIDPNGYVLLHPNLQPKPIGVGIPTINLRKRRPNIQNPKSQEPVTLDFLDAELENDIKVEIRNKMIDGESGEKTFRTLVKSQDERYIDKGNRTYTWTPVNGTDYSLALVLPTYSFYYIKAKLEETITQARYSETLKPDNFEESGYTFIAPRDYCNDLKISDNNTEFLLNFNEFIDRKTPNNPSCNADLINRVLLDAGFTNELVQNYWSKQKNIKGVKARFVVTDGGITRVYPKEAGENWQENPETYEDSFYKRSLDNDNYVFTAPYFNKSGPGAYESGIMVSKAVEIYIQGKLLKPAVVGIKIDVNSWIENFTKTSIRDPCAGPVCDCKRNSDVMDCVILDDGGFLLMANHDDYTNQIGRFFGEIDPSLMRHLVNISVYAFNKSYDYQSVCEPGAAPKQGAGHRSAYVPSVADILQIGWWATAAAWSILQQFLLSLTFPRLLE
Sequence (P54289 957-1103 partner limits assumed): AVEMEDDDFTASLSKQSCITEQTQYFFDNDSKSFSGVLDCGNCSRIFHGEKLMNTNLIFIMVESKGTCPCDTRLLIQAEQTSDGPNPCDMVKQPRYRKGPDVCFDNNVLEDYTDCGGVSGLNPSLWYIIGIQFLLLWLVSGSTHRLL
ASSAY_PROTOCOL: in vitro
APPLIED_CONDITIONS: CHO cells expressing human CaV1.2/β2/α2δ
PROPERTY_MEASURED: inhibition at 3 µM (%)
Quick reminder: number only, in %, skip the unit.

Just so you know, measured inhibition at 3 µM for CN1CCN(C2=Nc3cc(Cl)ccc3Nc3ccccc32)CC1 [Clozapine] came out at 59

Numbers sourced from paper PMC12251226.
